Every entry's value here was drawn from the supplement of paper PMC10567573.

B1: RHOBTB3 (parent)
chain: DSCCPAGIFQAMCLLICAEMYQVS

Variants of: B1
protocolNotes: protein stability index of a GFP-peptide fusion (GPS, HEK-293T) (PSI 1-6); higher = more stable;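 further: lentivirally expressed fusions sorted by FACS into six bins by GFP to DsRed ratio, PSI derived from sequencing read proportions per bin multiplied by bin number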
statedConditions: c terminus: a fixed tail appended
resultType: protein stability index
Just the number, please, no unit after it.

primarySequence: DSCCPAGIFQAMCLLICAEMRQVS
protein stability index: 2.92

Q. protein stability index lookup needed for DSCCPAGIAQAMCLLICAEMYQVS , thanks.
A. 2.97

Q. So what's the measured protein stability index for this one? DPCCPAGIFQAMCLLICAEMYQVS
A. 2.93

Q. Given DSCCPAGIFQAMCLLICAGMYQVS , state its recorded protein stability index.
A. 2.99

Q. Query (variant): DSCCPAGIFQAMCLFICAEMYQVS ; field requested: protein stability index
A. 2.97

Q. Item under review: DSCCPAGIFQAMCLLITAEMYQVS . Reported protein stability index?
A. 2.97

Q. # input variant: DSPCPAGIFQAMCLLICAEMYQVS ; wanted: its protein stability index
A. 2.93
